Target: Receptor tyrosine-protein kinase erbB-2 (Homo sapiens)
Assay: reducers of endogenous Her2 protein level, primary screen, SKBR3 breast tumor cells, AlphaScreen, ATP viability (AID 461);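 further: lower value means less Her2 protein in the cells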
Details: 18-24 h, at 10 µM, stronger effect = lower value
Threshold-based label: Her2 level under 90% gives Satisfied, Her2 level not under 90% gives Not satisfied.

Past entries and their recorded results:
>  <COMPOUND>
NS(=O)(=O)c1cc2c(cc1Cl)NC(C(Cl)Cl)NS2(=O)=O (configuration not stated)

>  <TARGET_OF_ASSAY>
Receptor tyrosine-protein kinase erbB-2 (Homo sapiens)

>  <DISCRETE_LABEL>
Not satisfied

$$$$
>  <COMPOUND>
COC(=O)CSc1cc(C)nc(NC(C)=O)n1

>  <TARGET_OF_ASSAY>
Receptor tyrosine-protein kinase erbB-2 (Homo sapiens)

>  <DISCRETE_LABEL>
Satisfied

$$$$
>  <COMPOUND>
O=C(NCc1ccco1)C1(S(=O)(=O)c2ccc(Cl)cc2)CC1

>  <TARGET_OF_ASSAY>
Receptor tyrosine-protein kinase erbB-2 (Homo sapiens)

>  <DISCRETE_LABEL>
Satisfied

$$$$

Please let me know if `COc1ccc2c(c1)[nH]c1c(=O)n(CCN(C)C)cnc12` shows Her2 level below 90%.
Satisfied

Please let me know if `O=C(CSc1nnc(-c2ccccc2)c(-c2ccccc2)n1)N1CCOCC1` shows Her2 level below 90%.
Not satisfied

Please let me know if `CCSc1nncn1/N=C/c1ccc(OC)c(OC)c1` shows Her2 level below 90%.
Not satisfied

Please let me know if `Cc1csc2nc(CNC(=O)c3ccco3)cn12` shows Her2 level below 90%.
Not satisfied

* * *

Test: reversal of MRP1-mediated doxorubicin resistance, pilot screen, H69AR cells, doxorubicin co-treatment (AID 601)
Conditions: H69AR cells + 2 uM doxorubicin, CellTiter-Glo, 72 h; at 10 µM; stronger effect = higher value
REPORTED_METRIC: differential viability (reversal) (%)
Answers are plain numbers, in %.

>  <COMPOUND>
CC1(C)Cc2noc(N)c2C(C)(C)N1OC(=O)c1ccccc1

>  <REPORTED_METRIC>
differential viability (reversal)

>  <MEAS_VALUE>
21.2

$$$$
>  <COMPOUND>
CN1CCN(CC(=O)N2c3ccccc3C(=O)Nc3cccnc32)CC1

>  <REPORTED_METRIC>
differential viability (reversal)

>  <MEAS_VALUE>
6.04

$$$$
>  <COMPOUND>
CCC(=NC(C)c1ccccc1)c1c(O)n(C)c(=O)n(C)c1=O (stereo unspecified)

>  <REPORTED_METRIC>
differential viability (reversal)

>  <MEAS_VALUE>
-14.2

$$$$
>  <COMPOUND>
Cc1ccc(C(=O)NCc2ccc3c(c2)OCO3)cc1S(=O)(=O)N1CCCCC1

>  <REPORTED_METRIC>
differential viability (reversal)

>  <MEAS_VALUE>
-2.33

$$$$
>  <COMPOUND>
Cc1ccc(S(=O)(=O)NCCC(=O)OCn2nnc3ccccc3c2=O)cc1

>  <REPORTED_METRIC>
differential viability (reversal)

>  <MEAS_VALUE>
-13.1

$$$$

Please turn your attention to the following entry.
The reported value for `CCCS(=O)(=O)N1CCC(C(=O)N2CCCC2)CC1` in terms of differential viability (reversal) is 3.92

* * *

Experiment: viability gain of MRP-1-high H69AR cells under doxorubicin, pilot screen, MRP-1 activator project, CellTiter-Glo, duplicate (AID 807);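 further: compound pretreatment 18-22 h then 72 h combined with doxorubicin; 0% = doxorubicin alone and 100% = vehicle without doxorubicin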
Conditions: H69AR viability with doxorubicin, CellTiter-Glo luminescence; at 10 µM; stronger effect = higher value
Kindly state viability increase for each of the entries shown.
Give bare numbers, in %.

>  <COMPOUND>
Cc1ccc(C2CC(c3cccc(C)c3)n3nc(N)nc3N2)cc1 (stereo unspecified)

>  <viability increase (%)>
-3.52

$$$$

Hello, I would appreciate it if you could give viability increase for each entry below.
1. Cc1nn(Cc2ccccc2)c(N)c1C#N
2. CC1CN(C(c2cccs2)c2sc3ncnn3c2O)CC(C)O1 (stereo unspecified)
3. O=C1Nc2ccccc2C(O)(C(=O)N2CCCCC2)N1c1ccccc1 (stereo unspecified)
4. CCCn1cc(S(=O)(=O)CC(=O)Nc2ccc(OC)cc2OC)c2ccccc21
5. Cc1cccc(-n2c(=O)[nH]c3c(C(N)=O)nc(-c4ccccc4Cl)nc32)c1
6. COc1ccccc1N1CCN(CC(=O)Nc2cc(C)nn2-c2nc(C)cc(C)n2)CC1
7. CC(C)CC(NC(=O)C1CCC(C)CC1)C(=O)Nc1cccnc1 (stereo unspecified)

1: 0.68; 2: 0.14; 3: -1.87; 4: -1.59; 5: -7.67; 6: -7.06; 7: -3.68

* * *

Assay: inhibitors of the yeast RAM network, pilot screen, dse1pr::URA3 reporter, 5-FOA selection (AID 869);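 further: 0% = DMSO wells with no growth and 100% = 10 µM 1-NA-PP1 with full growth; RAM network block rescues cells from 5-FOA so hits raise OD615 growth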
Conditions: S. cerevisiae dse1pr::URA3 5-FOA growth, OD615, 2 d; at 10 µM; stronger effect = higher value; strain carries analog-sensitive mutant Cbk1 kinase
REPORTED_METRIC: inhibition (%)
Give bare numbers, in %.

Recorded results for 5 compounds are shown here.
>  <COMPOUND>
Cc1c(NC(=O)c2ccco2)cccc1-c1nc2cccnc2s1

>  <inhibition, %>
2.2

$$$$
>  <COMPOUND>
O=C(Nc1ccc(F)cc1F)N1CCN(c2ncccn2)CC1

>  <inhibition, %>
1.76

$$$$
>  <COMPOUND>
CC(C)Sc1nc(NCc2ccco2)c2c3c(sc2n1)COC(C)(C)C3

>  <inhibition, %>
-0.26

$$$$
>  <COMPOUND>
COc1cccc(OC)c1C(=O)Nc1ccc2c(c1)OCCO2

>  <inhibition, %>
1.23

$$$$
>  <COMPOUND>
Cc1ccc2oc(=O)c3cnn(CC(=O)NC4CCN(Cc5ccccc5)CC4)c3c2c1

>  <inhibition, %>
1.77

$$$$

Please turn your attention to the following entry.
The reported value for CCOCCOC(=O)C1=C(C)NC2=C(C(=O)CC(c3cccs3)C2)C1c1ccsc1 (stereo unspecified) in terms of inhibition is 2.27

* * *

Experiment: inhibitors of the yeast RAM network, pilot screen, dse1pr::URA3 reporter, 5-FOA selection (AID 869);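 further: 0% = DMSO wells with no growth and 100% = 10 µM 1-NA-PP1 with full growth; RAM network block rescues cells from 5-FOA so hits raise OD615 growth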
Conditions: S. cerevisiae dse1pr::URA3 5-FOA growth, OD615, 2 d; at 10 µM; stronger effect = higher value; strain carries analog-sensitive mutant Cbk1 kinase
Kindly state inhibition for each of the entries shown.
One number for each entry, in %.

Recorded results for 10 compounds are shown here.
>  <COMPOUND>
O=C(Nc1cnc2ccccc2c1)c1ccncc1

>  <inhibition, %>
2.08

$$$$
>  <COMPOUND>
CCOC(=O)c1c(NC(=O)c2cc(C3CC3)on2)sc(C(C)=O)c1C

>  <inhibition, %>
1.64

$$$$
>  <COMPOUND>
Clc1ccc(-n2ncc3c(NCC4CCCO4)ncnc32)cc1 (stereo unspecified)

>  <inhibition, %>
0.57

$$$$
>  <COMPOUND>
CC1CCN(c2c(NCc3ccc(C(=O)NCC4COc5ccccc5O4)cc3)c(=O)c2=O)CC1 (stereo unspecified)

>  <inhibition, %>
0.785

$$$$
>  <COMPOUND>
CC1(C)CC(=O)C(C=NC2CC(C)(C)NC(C)(C)C2)=C(O)C1

>  <inhibition, %>
1.82

$$$$
>  <COMPOUND>
COC(=O)CCC(=O)Oc1ccc(OC(=O)CCC(=O)OC)cc1

>  <inhibition, %>
1.48

$$$$
>  <COMPOUND>
CC(=O)Nc1c(C(=O)c2ccc(F)cc2)oc2ccccc12

>  <inhibition, %>
2.3

$$$$
>  <COMPOUND>
c1ccc(Cc2nnc3sc(-c4ccc5c(c4)OCCO5)nn23)cc1

>  <inhibition, %>
1.33

$$$$
>  <COMPOUND>
Cc1ccc(Cl)cc1N1CCN(C(=O)c2cc3c(=O)n(C)c4ccccc4c3n2C)CC1

>  <inhibition, %>
1.74

$$$$
>  <COMPOUND>
Cc1ccccc1NC(=O)CCN1CCN(Cc2ccccc2)CC1

>  <inhibition, %>
1.85

$$$$

Please turn your attention to the following entry.
The reported value for Cc1cccc(-n2c(Cc3cc(=O)[nH]c(=O)[nH]3)nnc2SCC(=O)NCC2CCCO2)c1 (stereo unspecified) in terms of inhibition is 0.535

* * *

Kindly state RAM network inhibition for each of the entries shown.
Assay: RAM signaling pathway blockade in yeast – S. cerevisiae, Pdr1DBD-CYC8 efflux-inhibited sensitized strain, primary screen (AID 1298);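 further: 0% = DMSO untreated cells without growth and 100% = 10 µM 1-NA-PP1 full growth; higher means more yeast growth rescued from 5-FOA killing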
Conditions: S. cerevisiae cbk1-as DSE1-URA3 strain, 5-FOA growth OD615, 2 d; at 50 µM; stronger effect = higher value
Answers are plain numbers, in %.

Recorded results for 8 compounds are shown here.
>  <COMPOUND>
CCOC(=O)c1ccc(S(=O)(=O)N2CCN(CCC#N)CC2)cc1

>  <UNIT_SYMBOL>
%

>  <MEAS_VALUE>
0.21

$$$$
>  <COMPOUND>
CC1CCCN(Cc2nc3c(c(=O)n(C)c(=O)n3C)n2Cc2cccc3ccccc23)C1 (stereo not drawn)

>  <UNIT_SYMBOL>
%

>  <MEAS_VALUE>
0.76

$$$$
>  <COMPOUND>
COC(=O)CCC(=O)Nc1nc(-c2ccccc2)cs1

>  <UNIT_SYMBOL>
%

>  <MEAS_VALUE>
11

$$$$
>  <COMPOUND>
COc1ccc(C2c3c(oc4ccccc4c3=O)C(=O)N2c2ccccn2)cc1OC (stereo not drawn)

>  <UNIT_SYMBOL>
%

>  <MEAS_VALUE>
2.68

$$$$
>  <COMPOUND>
O=C(CCSCCC(=O)NCc1ccco1)NCc1ccco1

>  <UNIT_SYMBOL>
%

>  <MEAS_VALUE>
6.5

$$$$
>  <COMPOUND>
COc1ccc(C2c3c(oc4ccccc4c3=O)C(=O)N2c2ccccn2)cc1 (stereo not drawn)

>  <UNIT_SYMBOL>
%

>  <MEAS_VALUE>
4.85

$$$$
>  <COMPOUND>
CCCCCn1c(NCc2ccco2)nc2ccccc21

>  <UNIT_SYMBOL>
%

>  <MEAS_VALUE>
1.9

$$$$
>  <COMPOUND>
COc1ccc(C2c3sc(=O)[nH]c3SC3C(=O)N(c4ccccc4)C(=O)C32)cc1 (stereo not drawn)

>  <UNIT_SYMBOL>
%

>  <MEAS_VALUE>
5.53

$$$$

Hello, I would appreciate it if you could give RAM network inhibition for each entry below.
1. COc1ccc(C2C(C(=O)N3CCCCC3)CCC(=O)N2c2cc(OC)c(OC)c(OC)c2)cc1 (stereo not drawn)
2. O=C(c1cc2ccccn2n1)N1CCCC1
3. COc1ccc(Oc2ccc(S(=O)(=O)N3CCCCC3)cc2S(=O)(=O)N2CCCCC2)cc1

[5.22, 6.63, 3.99]

Hello, I would appreciate it if you could give RAM network inhibition for each entry below.
1. CCc1ccc(NC(=O)CSc2nnc(Cn3c(=O)sc4ccccc43)n2C)cc1
2. O=C1CSC(=S)N1Cc1cccnc1
3. CCOC(=O)CN1CC23C=CC(O2)C(C(=O)NCc2ccc(C)cc2)C3C1=O (stereo not drawn)
4. CC1CN(c2ncnc3c2cnn3-c2ccc(Cl)cc2)CC(C)O1 (stereo not drawn)
5. COc1ccc(C2C(C(=O)Nc3cc(C)on3)c3ccccc3C(=O)N2C)cc1OC (stereo not drawn)
6. COc1ccc(S(=O)(=O)N(C)c2c(C)n(C)n(-c3ccccc3)c2=O)cc1OC
7. COc1cccc2c(=O)c(C/C=C(/C)Cl)c(C)[nH]c12
8. CCN1CCN(C(=O)c2cc3c(=O)oc4ccc(C)cc4c3s2)CC1

1. 8.29
2. -0.15
3. 1.3
4. 3.95
5. 4.64
6. 3.38
7. -0.16
8. 1.3

Hello, I would appreciate it if you could give RAM network inhibition for each entry below.
1. CC(C)(Oc1ccc(-c2ccco2)cc1)C(=O)O
2. Cc1nn(-c2ccccc2)c2sc(C(=O)n3cccn3)cc12
3. O=C(c1ccccn1)N1CCN(c2ccc(C(F)(F)F)cn2)CC1
4. O=C(O)CSc1cccc2cccnc12

1.07
8.3
3.84
1.05
